Data provenance is patent US20240132525A1.

Measurement description: Pharmacokinetic profile after single oral administration in Beagle dogs
Type: in vivo
Condition context: dog, in vivo; male Beagle dogs, single oral dose about 1.0 mg/kg, fasted; read-out: Median Tmax

{"columns": ["Compound", "Tmax [h]"],
 "data": [
  ["Cc1cnc(Nc2cc3c(c(C(F)(F)F)c2)B(O)OC3)nc1N[C@@H]1COCC[C@H]1C#N (single isomer, unassigned) [Example 033a]", 1]
]}

---

Assayed system: JAK1 (Homo sapiens (Human), UniProt P23458)
Sequence (P23458 whole entry, species assumed): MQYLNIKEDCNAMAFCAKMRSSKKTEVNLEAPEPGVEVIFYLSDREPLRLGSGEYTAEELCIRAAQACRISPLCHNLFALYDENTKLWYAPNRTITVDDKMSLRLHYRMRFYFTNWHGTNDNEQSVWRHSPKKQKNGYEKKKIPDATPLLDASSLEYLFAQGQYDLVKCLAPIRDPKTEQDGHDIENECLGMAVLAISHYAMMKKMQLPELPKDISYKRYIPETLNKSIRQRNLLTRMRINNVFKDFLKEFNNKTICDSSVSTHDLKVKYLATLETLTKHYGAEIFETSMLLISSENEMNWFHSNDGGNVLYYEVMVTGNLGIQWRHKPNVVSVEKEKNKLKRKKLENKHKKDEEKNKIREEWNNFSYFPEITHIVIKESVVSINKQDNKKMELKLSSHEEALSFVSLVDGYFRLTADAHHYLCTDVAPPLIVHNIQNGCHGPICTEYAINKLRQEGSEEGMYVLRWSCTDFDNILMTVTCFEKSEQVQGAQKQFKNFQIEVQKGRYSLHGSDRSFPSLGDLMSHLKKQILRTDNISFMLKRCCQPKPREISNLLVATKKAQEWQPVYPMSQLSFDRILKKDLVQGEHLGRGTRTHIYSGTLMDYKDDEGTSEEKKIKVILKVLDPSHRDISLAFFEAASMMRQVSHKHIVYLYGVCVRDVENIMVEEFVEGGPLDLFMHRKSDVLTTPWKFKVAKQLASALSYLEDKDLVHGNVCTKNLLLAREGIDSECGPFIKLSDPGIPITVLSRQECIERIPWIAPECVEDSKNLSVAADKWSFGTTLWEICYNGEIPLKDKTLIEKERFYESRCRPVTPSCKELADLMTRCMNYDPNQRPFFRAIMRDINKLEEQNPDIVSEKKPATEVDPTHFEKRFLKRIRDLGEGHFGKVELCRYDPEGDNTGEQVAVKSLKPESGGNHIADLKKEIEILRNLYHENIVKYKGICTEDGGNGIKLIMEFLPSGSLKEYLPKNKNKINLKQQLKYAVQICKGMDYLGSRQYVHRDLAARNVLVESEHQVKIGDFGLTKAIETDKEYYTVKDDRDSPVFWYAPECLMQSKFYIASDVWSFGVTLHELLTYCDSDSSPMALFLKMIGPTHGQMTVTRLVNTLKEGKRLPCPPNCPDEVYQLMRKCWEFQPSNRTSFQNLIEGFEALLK
Measurement description: Biochemical kinase assay (33P-ATP filter-binding), JAK1
Condition context: Table 3a; read-out: IC50 JAK1
pIC50: −log10 of the molar value.
A collection of compounds and their measured pIC50
Quantity measured: pIC50

{"columns": ["Compound", "Recorded measurement"],
 "data": [
  ["Cc1cnc(Nc2cc(Cl)c3c(c2)COB3O)nc1N[C@@H]1CCC[C@H]1C#N (single isomer, unassigned) [Example 003a]", 9.15],
  ["Cc1cnc(Nc2ccc3c(c2)C=CB(O)O3)nc1N[C@@H]1COCC[C@H]1C#N (relative stereo) [Example 035]", 9.15],
  ["Cc1cnc(Nc2ccc3c(c2)OB(O)C=C3)nc1N[C@@H]1COCC[C@H]1C#N (relative stereo) [Example 034]", 8.96],
  ["N#C[C@@H]1CCC[C@H]1Nc1nc(Nc2ccc3c(c2)COB3O)ncc1Cl (relative stereo) [Example 005]", 9.30],
  ["Cc1cnc(Nc2cc(C)c3c(c2)COB3O)nc1N[C@@H]1CCCC[C@H]1C#N (relative stereo) [Example 009]", 8.96],
  ["Cc1cnc(Nc2cc(F)c3c(c2)C=CB(O)O3)nc1N[C@@H]1COCC[C@H]1C#N (single isomer, unassigned) [Example 036b]", 8.09],
  ["N#C[C@@H]1CCC[C@H]1Nc1nc(Nc2cc(Cl)c3c(c2)COB3O)ncc1C(F)(F)F (relative stereo) [Example 022]", 8.48]
]}

---

System: IL-31
Measurement description: Cytokine function assay for IL-31 in DH82 cells
Format: cell-based, canine
Condition context: Canis lupus familiaris, DH82, read-out: IC50 IL-31
pIC50: −log10 of the molar value.
Quantity measured: pIC50

{"columns": ["Compound", "Quantity measured", "Recorded measurement"],
 "data": [
  ["Cc1cnc(Nc2ccc3c(c2)C(C)(C)OB3O)nc1N[C@@H]1COCC[C@H]1C#N (relative stereo) [Example 032]", "pIC50", 7.29],
  ["Cc1cnc(Nc2cc(Cl)c3c(c2)COB3O)nc1N[C@H]1CCCOC1 [Example 030b]", "pIC50", 7.59]
]}

---

# maps each entry to its pIC50
System: GM-CSF/pSTAT5
Measurement description: Cytokine function assay GM-CSF/pSTAT5 in lysed whole blood cells
Format: cell-based
Condition context: Table 3b, comparator compounds; read-out: IC50 GM-CSF
pIC50: −log10 of the molar value.
Quantity measured: pIC50

{"columns": ["Molecule", "Measurement qualifier", "Recorded measurement"],
 "data": [
  ["CCC(CC)Nc1nc(Nc2cc(Cl)c3c(c2)COB3O)ncc1C [Example C002]", "=", 5.00],
  ["Cc1cnc(Nc2cc(Cl)c3c(c2)COB3O)nc1NC1CCCCC1 [Example C012]", "=", 5.75],
  ["Cc1cnc(Nc2cc(C)c3c(c2)COB3O)nc1NC1CCCC1 [Example C008]", "<", 5.00],
  ["Cc1cnc(Nc2ccc3c(c2)COB3O)nc1NC1CCCC1 [Example C006]", "=", 6.57],
  ["CCC(CC)Nc1nc(Nc2cc(F)c3c(c2)COB3O)ncc1C [Example C003]", "=", 5.94],
  ["Cc1cnc(Nc2ccc3c(c2)C(C)(C)OB3O)nc1NC1CCCC1 [Example C009]", "=", 5.37],
  ["CCC(CC)Nc1nc(Nc2ccc3c(c2)COB3O)ncc1C [Example C001]", "=", 5.76],
  ["CCC(CC)Nc1nc(Nc2ccc3c(c2)COB3O)ncc1Cl [Example C005]", "=", 5.65],
  ["Cc1cnc(Nc2ccc3c(c2)COB3O)nc1NC1CCCCC1 [Example C011]", "=", 5.11]
]}
